activity at 0.001 µM reference
- System: IL-4 production
- TEST: Inhibitory activity against Th2 cytokine produced from sensitized spleen cells: IL-4
- Format: cell-based, mouse
- CONDITIONS: Mus musculus, 72 h; concentration 1 nM, OVA-sensitized BALB/c spleen cells, 3 days; read-out: Inhibitory activity against IL-4 production
Answer as a quantity: numeral, then unit.

Record excerpt, results attached:
CCCCNc1nc(N)c2nc(O)n(Cc3cccnc3)c2n1 : 53%
CCCCNc1nc(N)c2nc(O)n(Cc3ccc(OC)nc3)c2n1 : 32%
CCCCOc1nc(N)c2nc(O)n(Cc3ccc(OC)nc3)c2n1 : 4%

Memo: CC(C)Cn1cnc2c(N)nc3ccccc3c21 [Comparative Example 1, Imiquimod, reference compound] , reported activity at 0.001 µM: 18%

The value of activity at 0.001 µM measured for the compound CCCCNc1nc(N)c2nc(O)n(Cc3ccccn3)c2n1 turned out to be 106%

====

- TEST: Gastrointestinal absorption in rat (drug level in blood by HPLC)
- Assay type: in vivo
- CONDITIONS: blood; dose 10 mg/kg oral, SD male rat; read-out: Tmax
Structures can show the parent of a compound that is named as a salt.
ASSAY READOUT: Tmax (min)
Write down the numeric answer in min and omit the unit.

Form field Tmax, entry CCCCOc1nc(N)c2nc(O)n(Cc3ccc(C)nc3)c2n1 [Hydrochloride of Example 25] : 15

====

- System: Balb/c male mouse
- TEST: Interferon-inducing activity in mouse (in vivo), serum interferon titer after oral dosing
- CONDITIONS: po, 0.03 mg/kg, 2 h
Criterion: Interferon-inducing activity strictly less than 100 U/ml. Met: Yes. Not met: No.

Recorded results for 5 compounds are shown here.
CCCCOc1nc(N)c2nc(O)n(Cc3ccc(OC)nc3)c2n1 : No
CCCCNc1nc(N)c2nc(O)n(Cc3ccc(OC)nc3)c2n1 : No
CCCCOc1nc(N)c2nc(O)n(Cc3ccccc3)c2n1 [Reference Compound 2, 9-benzyl-2-butoxy-8-hydroxyadenine, reference compound] : Yes
CCCCNc1nc(N)c2nc(O)n(Cc3cccnc3)c2n1 : Yes
CCCCOc1nc(N)c2nc(O)n(Cc3cccnc3)c2n1 : No

Next compound, please.
Dear colleague, could you confirm whether Interferon-inducing activity of CCCCOc1nc(N)c2nc(O)n(Cc3cccnc3C)c2n1 falls below 100 U/ml? Thanks. No

====

Measured Tmax by item
- TEST: Gastrointestinal absorption in rat (drug level in blood by HPLC)
- Assay type: in vivo
- CONDITIONS: blood; dose 3 mg/kg oral, SD male rat; read-out: Tmax
Counter-ions that a name gives are not always drawn.
Dear colleague, please return just the value in min, with no unit written.

Known results for molecules:
CCCCNc1nc(N)c2nc(O)n(Cc3ccc(OC)nc3)c2n1 : 240
CCCCNc1nc(N)c2nc(O)n(Cc3ccc(C)nc3)c2n1 : 30

Tmax reported for this molecule CCCCOc1nc(N)c2nc(O)n(Cc3ccc(C)nc3)c2n1 [Hydrochloride of Example 25] : 60

# Tmax of CC(C)Cn1cnc2c(N)nc3ccccc3c21 [Comparative Example 1, Imiquimod, reference compound] = 30

====

- TEST: Gastrointestinal absorption in rat (drug level in blood by HPLC)
- Type: in vivo
- CONDITIONS: blood; dose 3 mg/kg oral, SD male rat; read-out: Cmax
Where a name gives a salt, the structure may show the parent alone.
ASSAY READOUT: Cmax (ng/mL)
The reply should be a number in ng/mL, with the unit left off.

CCCCNc1nc(N)c2nc(O)n(Cc3ccc(OC)nc3)c2n1 : 188

Measured Cmax of CCCCOc1nc(N)c2nc(O)n(Cc3ccc(C)nc3)c2n1 [Hydrochloride of Example 25] : 18

Consider CCCCNc1nc(N)c2nc(O)n(Cc3ccc(C)nc3)c2n1 . Its measured Cmax is 565

Record CC(C)Cn1cnc2c(N)nc3ccccc3c21 [Comparative Example 1, Imiquimod, reference compound] , field Cmax: 90

====

Measured solubility at 30 min by item
- TEST: Solubility in citric acid/disodium phosphate buffers
- CONDITIONS: citric acid/disodium phosphate buffer, pH 7.4, aqueous buffer, thermodynamic from solid
Provide the reading as a plain figure in µg/mL.

# example entries with known answers
COc1nc(N)c2nc(O)n(Cc3cccnc3)c2n1 [Example 32] : 25
CCCCOc1nc(N)c2nc(O)n(Cc3ccc(C)nc3)c2n1 [Example 25] : 3
CCCCOc1nc(N)c2nc(O)n(Cc3cccnc3)c2n1 [Example 8] : 18
CCCCNc1nc(N)c2nc(O)n(Cc3ccc(N(C)C)nc3)c2n1 [Example 24] : 1
CCCCNc1nc(N)c2nc(O)n(Cc3cccnc3)c2n1 [Example 21] : 64

Lab book: solubility at 30 min of CCCCOc1nc(N)c2nc(O)n(Cc3cccnc3C)c2n1 [Example 26] noted as 3

Looking up CCCCNc1nc(N)c2nc(O)n(Cc3ccc(OC)nc3)c2n1 [Example 19] , I found its solubility at 30 min recorded as 2

The compound listed as CCCCOc1nc(N)c2nc(O)n(Cc3ccncc3)c2n1 [Example 9] has a reported solubility at 30 min of 3

Documented solubility at 30 min of CCCCNc1nc(N)c2nc(O)n(Cc3ccncc3)c2n1 [Example 22] : 16

Record summary for CCCCNc1nc(N)c2nc(O)n(Cc3cccnc3C)c2n1 [Example 28] : reported solubility at 30 min = 4

====

Let's look at some compounds and their measured solubility at 30 min.
- TEST: Solubility in citric acid/disodium phosphate buffers
- CONDITIONS: pH 5.5, aqueous buffer, thermodynamic from solid
State the answer as a number, implicitly in µg/mL.

CCCCNc1nc(N)c2nc(O)n(Cc3ccc(C)nc3)c2n1 : 5

Let's switch to this compound now.
// CCCCOc1nc(N)c2nc(O)n(Cc3cnccn3)c2n1 : solubility at 30 min value = 15

====

- TEST: Solubility in citric acid/disodium phosphate buffers
- CONDITIONS: citric acid/disodium phosphate buffer, pH 7.4, aqueous buffer, thermodynamic from solid
Recorded solubility at 30 min, one value per entry.

Check out these entries, answers already filled in.
CCCCOc1nc(N)c2nc(O)n(Cc3ccccc3)c2n1 [Reference Compound 2, 9-benzyl-2-butoxy-8-hydroxyadenine, reference compound] : < 1 µg/mL
CCCCOc1nc(N)c2nc(O)n(Cc3ccc(N4CCOCC4)nc3)c2n1 : < 1 µg/mL

# input for lookup
So, CCCCNc1nc(N)c2nc(O)n(Cc3ccccc3)c2n1 [Reference Compound 1, 9-Benzyl-2-butylamino-8-hydroxyadenine, reference compound] ? Its solubility at 30 min was < 1 µg/mL
